# ASSAY: Thermal decomposition properties of salt forms (TGA)
# Type: physicochemical
Structures can show the parent of a compound that is named as a salt.
ENDPOINT_LABEL: TGA Guidance: decomposition temperature

>>> print(df.to_string())
                                   compound                           endpoint_label        measured_value
0  COc1ccc2[nH]cc(CCN(C)C)c2c1.O=C(O)c1ccccc1 [5-MeO-DMT benzoate]  TGA Guidance: decomposition temperature               ~220 °C
1  COc1ccc2[nH]cc(CCN(C)C)c2c1 [Phosphate, 5-MeO-DMT phosphate]  TGA Guidance: decomposition temperature  Decomp around 200 °C
2  COc1ccc2[nH]cc(CCN(C)C)c2c1 [Fumarate, 5-MeO-DMT fumarate]  TGA Guidance: decomposition temperature  Decomp around 200 °C
